System: HOP-92 NSCLC
Assay: NCI-60 one-dose screen, 48 h
Conditions: 10 µM unless noted
The panel holds about 83,000 compounds, 20% with a hit somewhere; the sample as a whole holds those more often. Active and inactive are the calls of the source. Rule for the calls: active = growth percent below 10; inactive = the rest.
Labels: True (active), False (inactive)

compound	class
CCCNNC(=O)/C=C/c1ccc(CNCCc2c(C)[nH]c3ccccc23)cc1	True
CCCCSc1ccc2nc(-c3ccc(OCCCN=C(N)N)cc3)cn2c1	False
COCCn1cc(-c2nc(-c3cn(CCOC)c4ncccc34)cs2)c2ccccc21	False
Cc1ccc(-c2nc([P+](c3ccccc3)(c3ccccc3)c3ccccc3)c(Nc3ccccc3)o2)cc1	True
Clc1ccc2c(c1)N(c1ncnc3ccc(-c4cnc5[nH]ccc5c4)cc13)CC2	False
COc1cc(-c2nc3occn3c2-c2ccnc(NCCCNS(=O)(=O)c3ccc(O)cc3)n2)ccc1F	False
O=C(CCCOc1ccc(Br)cc1)Nc1ncc(Cc2ccc(F)cc2)s1	False
CCN(CC)CCCN1C(=O)c2c(c(C)c3c(oc4cc(OC)ccc43)c2C)C1=O	False
O=S(=O)(Nc1cc(Sc2cccc3cccnc23)c(O)c2ccccc12)c1ccc(F)cc1	True
COc1cc(/C=C(/c2ccccc2)[N+](=O)[O-])c(OC)c2c1OCO2	True
Nc1ccccc1SC(CC(=O)c1ccccc1)c1ccc([N+](=O)[O-])cc1 (stereo unspecified)	False
